Biological target: human PDGFRβ (Homo sapiens (Human))
Sequence (P09619 561-1106): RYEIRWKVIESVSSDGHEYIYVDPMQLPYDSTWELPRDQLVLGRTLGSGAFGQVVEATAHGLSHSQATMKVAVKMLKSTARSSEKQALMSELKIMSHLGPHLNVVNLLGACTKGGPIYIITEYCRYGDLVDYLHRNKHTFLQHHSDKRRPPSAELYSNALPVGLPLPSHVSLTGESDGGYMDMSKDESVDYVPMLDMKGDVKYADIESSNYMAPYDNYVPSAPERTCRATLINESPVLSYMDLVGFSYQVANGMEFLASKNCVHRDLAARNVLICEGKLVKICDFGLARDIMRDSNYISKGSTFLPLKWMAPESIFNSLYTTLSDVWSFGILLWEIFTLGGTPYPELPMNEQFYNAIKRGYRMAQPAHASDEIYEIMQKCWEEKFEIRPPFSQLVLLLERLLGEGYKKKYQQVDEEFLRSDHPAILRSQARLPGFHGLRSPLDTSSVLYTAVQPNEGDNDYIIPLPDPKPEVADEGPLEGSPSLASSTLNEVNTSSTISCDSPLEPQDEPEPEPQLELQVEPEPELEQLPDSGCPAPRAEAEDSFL
Assay: PDGFRβ kinase assay (PDGFRβ-HTRF)
Assay type: biochemical
Conditions: 10 μM ATP; some mean values from multiple determinations
Give pIC50 for every item shown.
Answers are plain numbers, as −log10 of the molar value.

Example results:
>>> df
                                   compound                      measured_target  property_name  value
0  Cc1cc(F)c(Nc2ccnc3c2C(=O)Nc2cc(C#N)ccc2N3)cc1O  human PDGFRβ (Homo sapiens (Human))          pIC50   7.82
1  Cc1cc(F)c(Nc2ccnc3c2C(=O)Nc2cc(CNC4CCCC4)ccc2N3)cc1O  human PDGFRβ (Homo sapiens (Human))          pIC50   8.96
2  Cc1ccc(O)cc1Nc1ccnc2c1C(=O)Nc1cc(CNC3CCCCC3C)ccc1N2 (centres unmarked)  human PDGFRβ (Homo sapiens (Human))          pIC50   8.52
3  Cc1cc(F)c(Nc2ccnc3c2C(=O)Nc2cc(CNC4CC4)ccc2N3)cc1O  human PDGFRβ (Homo sapiens (Human))          pIC50   8.66
4  N#Cc1ccc2c(c1)NC(=O)c1c(Nc3cc(O)ccc3Cl)ccnc1N2  human PDGFRβ (Homo sapiens (Human))          pIC50   7.70

Items follow; give pIC50 for each.
1. Cc1ccc(O)cc1Nc1ccnc2c1C(=O)Nc1cc(CNCCC(=O)N(C)C)ccc1N2
2. Cc1ccc(O)cc1Nc1ccnc2c1C(=O)Nc1cc(CNCc3ccc(Cl)nc3)ccc1N2
3. Cc1ccc(O)cc1Nc1ccnc2c1C(=O)Nc1cc(CNc3ccn(C)n3)ccc1N2
4. Cc1cc(F)c(Nc2ccnc3c2C(=O)Nc2cc(CN4CCC[C@@H](N)C4)ccc2N3)cc1O
5. Cc1ccc(O)cc1Nc1ccnc2c1C(=O)Nc1cc(CNC(C)C3CC=CCC3)ccc1N2 (centres unmarked)
6. Cc1ccc(O)cc1Nc1ccnc2c1C(=O)Nc1cc(CNC3(C)CCS(=O)(=O)C3)ccc1N2 (centres unmarked)
7. Cc1cc(F)c(Nc2ccnc3c2C(=O)Nc2cc(CN4CCC(N)CC4)ccc2N3)cc1O
8. CCCNCc1ccc2c(c1)NC(=O)c1c(Nc3cc(O)ccc3C)ccnc1N2

[8.26, 8.71, 7.84, 9.08, 8.78, 8.29, 8.97, 8.71]

Could I get pIC50 for every one of these entries?
1. Cc1ccn(CCCNCc2ccc3c(c2)NC(=O)c2c(Nc4cc(O)ccc4C)ccnc2N3)n1
2. Cc1cc(F)c(Nc2ccnc3c2C(=O)Nc2cc(CN4CCC(C)C(O)C4)ccc2N3)cc1O (centres unmarked)
3. Cc1cc(F)c(Nc2ccnc3c2C(=O)Nc2cc(CN(C)C[C@@H](C)O)ccc2N3)cc1O

1: 8.53; 2: 8.74; 3: 8.87

Field request: pIC50 | item: Cc1ccc(O)cc1Nc1ccnc2c1C(=O)Nc1cc(CNCCN3CCCCCC3)ccc1N2 8.39

src = patent US10047096B2
